All values here come from patent US8394858B2.

Molecular target: human acetyl-CoA carboxylase 2 (ACC2) (Homo sapiens, UniProt O00763)
Construct: The cDNA encoding amino acids 144 to 2458 of human acetyl-CoA carboxylase 2
Sequence (O00763 144-2458): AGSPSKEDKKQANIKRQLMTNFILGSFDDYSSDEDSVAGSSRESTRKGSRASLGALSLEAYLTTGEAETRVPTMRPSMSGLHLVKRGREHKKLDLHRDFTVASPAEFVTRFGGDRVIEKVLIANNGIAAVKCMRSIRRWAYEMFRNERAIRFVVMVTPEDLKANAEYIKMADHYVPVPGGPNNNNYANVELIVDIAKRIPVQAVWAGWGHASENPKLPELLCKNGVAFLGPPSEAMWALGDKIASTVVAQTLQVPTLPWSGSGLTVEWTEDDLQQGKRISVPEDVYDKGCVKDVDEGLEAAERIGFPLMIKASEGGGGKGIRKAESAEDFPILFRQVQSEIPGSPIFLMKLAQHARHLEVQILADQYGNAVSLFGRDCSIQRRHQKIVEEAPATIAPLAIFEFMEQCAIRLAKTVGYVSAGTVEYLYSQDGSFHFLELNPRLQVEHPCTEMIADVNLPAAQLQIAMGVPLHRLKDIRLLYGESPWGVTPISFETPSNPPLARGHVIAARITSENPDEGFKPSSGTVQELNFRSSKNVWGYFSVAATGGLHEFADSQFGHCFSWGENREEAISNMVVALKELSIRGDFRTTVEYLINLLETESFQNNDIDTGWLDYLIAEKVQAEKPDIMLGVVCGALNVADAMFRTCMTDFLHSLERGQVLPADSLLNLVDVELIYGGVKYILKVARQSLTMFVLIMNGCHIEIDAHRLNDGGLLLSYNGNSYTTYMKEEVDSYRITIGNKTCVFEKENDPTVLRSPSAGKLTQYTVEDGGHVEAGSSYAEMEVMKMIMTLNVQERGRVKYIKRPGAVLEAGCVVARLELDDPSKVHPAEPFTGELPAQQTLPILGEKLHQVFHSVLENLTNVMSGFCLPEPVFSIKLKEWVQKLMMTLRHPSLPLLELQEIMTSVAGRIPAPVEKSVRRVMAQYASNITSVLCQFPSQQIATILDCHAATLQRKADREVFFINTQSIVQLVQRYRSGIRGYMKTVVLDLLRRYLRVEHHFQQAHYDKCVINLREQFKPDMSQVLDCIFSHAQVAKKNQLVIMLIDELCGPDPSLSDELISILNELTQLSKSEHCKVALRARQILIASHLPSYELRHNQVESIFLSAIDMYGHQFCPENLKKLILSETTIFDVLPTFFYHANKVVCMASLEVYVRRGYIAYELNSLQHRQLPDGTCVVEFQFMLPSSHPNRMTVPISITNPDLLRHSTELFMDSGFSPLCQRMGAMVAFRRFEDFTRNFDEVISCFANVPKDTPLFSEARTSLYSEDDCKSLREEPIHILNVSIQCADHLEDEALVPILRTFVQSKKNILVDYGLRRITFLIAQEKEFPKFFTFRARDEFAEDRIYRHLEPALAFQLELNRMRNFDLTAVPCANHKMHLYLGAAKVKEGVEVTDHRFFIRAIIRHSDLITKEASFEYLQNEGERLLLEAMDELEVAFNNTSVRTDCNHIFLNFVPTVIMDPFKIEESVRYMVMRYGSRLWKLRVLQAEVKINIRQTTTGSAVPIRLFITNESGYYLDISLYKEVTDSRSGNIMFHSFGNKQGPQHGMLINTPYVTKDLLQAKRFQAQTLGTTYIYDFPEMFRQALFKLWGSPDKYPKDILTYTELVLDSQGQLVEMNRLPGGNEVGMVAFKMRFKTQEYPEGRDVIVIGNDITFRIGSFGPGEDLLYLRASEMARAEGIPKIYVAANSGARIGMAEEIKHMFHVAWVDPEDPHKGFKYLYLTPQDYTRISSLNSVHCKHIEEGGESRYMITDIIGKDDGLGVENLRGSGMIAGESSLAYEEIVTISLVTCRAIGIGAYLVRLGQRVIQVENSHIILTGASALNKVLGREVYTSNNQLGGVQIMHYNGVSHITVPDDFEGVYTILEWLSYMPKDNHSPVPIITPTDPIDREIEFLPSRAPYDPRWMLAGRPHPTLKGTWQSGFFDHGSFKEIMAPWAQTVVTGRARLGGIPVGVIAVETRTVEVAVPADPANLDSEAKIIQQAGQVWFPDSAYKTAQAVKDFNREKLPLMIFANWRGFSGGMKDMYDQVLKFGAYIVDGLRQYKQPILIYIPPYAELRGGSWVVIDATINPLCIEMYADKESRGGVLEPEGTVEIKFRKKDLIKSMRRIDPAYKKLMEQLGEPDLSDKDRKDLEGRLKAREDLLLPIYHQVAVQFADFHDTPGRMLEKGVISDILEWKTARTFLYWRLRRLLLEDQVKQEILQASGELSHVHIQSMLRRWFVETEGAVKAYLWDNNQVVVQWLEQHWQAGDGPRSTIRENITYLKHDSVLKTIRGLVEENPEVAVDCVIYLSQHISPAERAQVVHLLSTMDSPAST
Assay: Acetyl-CoA carboxylase enzyme assay (malonyl-CoA formation by LC/MS/MS)
Conditions: recombinant human ACC2 (amino acids 144 to 2458), 50 μM acetyl-CoA, 120 μM ATP, 2 mM KHCO3
RESULT TYPE: IC50 (nM)

COMPOUND: CC(C)(O)[C@@H](NC(=O)[C@H]1CC[C@H](NS(=O)(=O)c2ccc(-c3ccccc3)cc2)CC1)c1ccccc1 [Example 395]
EXPERIMENTAL SYSTEM: human acetyl-CoA carboxylase 2 (ACC2) (Homo sapiens, UniProt O00763)
IC50 / nM: 10

COMPOUND: O=C(O)CCc1ccc(-c2ccc(S(=O)(=O)N[C@H]3CC[C@H](C(=O)N4CCOC[C@@H]4c4ccccc4)CC3)cc2)cc1 [Example 419]
EXPERIMENTAL SYSTEM: human acetyl-CoA carboxylase 2 (ACC2) (Homo sapiens, UniProt O00763)
IC50 / nM: 25

COMPOUND: C[C@@H](NC(=O)[C@H]1CC[C@H](NS(=O)(=O)c2ccc(-c3ccc(CNCC(=O)O)cc3)cc2)CC1)c1ccc(F)cc1 [Example 370]
EXPERIMENTAL SYSTEM: human acetyl-CoA carboxylase 2 (ACC2) (Homo sapiens, UniProt O00763)
IC50 / nM: 10

COMPOUND: CC(C)(O)[C@@H](NC(=O)[C@]1(C)CC[C@@H](NS(=O)(=O)c2ccc(C(F)(F)F)cc2)CC1)c1ccccc1 [Example 448]
EXPERIMENTAL SYSTEM: human acetyl-CoA carboxylase 2 (ACC2) (Homo sapiens, UniProt O00763)
IC50 / nM: 40

a = C[C@@H](NC(=O)[C@H]1CC[C@H](NS(=O)(=O)c2ccc(-c3ccc(OCCN4CCOCC4)cc3)cc2)CC1)c1ccc(F)cc1 [Example 385]
b = O=C1CN(C(=O)[C@H]2CC[C@H](NS(=O)(=O)c3ccc(-c4ccccc4)cc3)CC2)C(c2ccccc2)CN1 (stereo partly drawn) [Example 428]
Ask | # min-compare on IC50 between a and b Write down the label of the entry you select.
Reply | a
